The measurements presented in this section are drawn from patent US20260274866A1.

# SYSTEM_UNDER_TEST: KRAS G12C (GMPPNP-loaded) and cRAF (Ras-binding domain) interaction (Homo sapiens, UniProt P01116, C118S/C51S/C80L/G12C)
# Construct: truncated version comprising amino acids 1-169
# Sequence (P01116 1-169 isoform P01116-2 G12C/C51S/C80L/C118S): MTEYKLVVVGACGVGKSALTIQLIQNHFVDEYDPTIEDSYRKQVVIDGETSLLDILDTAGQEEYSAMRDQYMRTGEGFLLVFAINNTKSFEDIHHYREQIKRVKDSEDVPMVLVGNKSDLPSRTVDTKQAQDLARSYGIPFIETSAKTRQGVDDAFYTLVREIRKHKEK
# PROCEDURE_SUMMARY: AlphaScreen inhibition of KRAS G12C and cRAF binding
# EXPERIMENTAL_PARAMETERS: KRAS G12C preloaded with GTP analogue GMPPNP, 2 hours preincubation
# Method: The AlphaScreen technology was used to determine IC50s for compound inhibition of KRAS G12C (present as the Cys-light (C51S, C80L and C118S), truncated version comprising amino acids 1-169) and cRAF interaction. […] IC50s were determined using nonlinear regression fit of [inhibitor] vs. response (4 parameters). A counter assay was also set up to rule out inhibitors of the AlphaScreen technology itself. […] Samples were read and analyzed as above.
MEASURE: IC50

>>> val("C[C@H](/C=C/C(=O)N1CCN(c2nc(OC[C@@]34CCCN3C[C@H](F)C4)nc3c(F)c(-c4cccc5cccc(Cl)c45)ncc23)C[C@@H]1CC#N)N1CC2CCC(C1)O2 [Compound 42]")
"100 to 500 nM"
>>> val("C[C@H](/C=C/C(=O)N1CC[C@@H](N(C)c2nc(OC[C@@]34CCCN3C[C@H](F)C4)nc3c(F)c(-c4cccc5cccc(Cl)c45)ncc23)C1)N1CCC1 [Compound 12]")
"10 to 100 nM"
>>> val("C[C@@H](/C=C/C(=O)N1CCN(c2nc(OC[C@@]34CCCN3C[C@H](F)C4)nc3c(F)c(-c4cccc5cccc(Cl)c45)ncc23)C[C@@H]1CC#N)N1C[C@@H]2C[C@H]1CO2 [Compound 41]")
"10 to 100 nM"
>>> val("C[C@H](/C=C/C(=O)N1CCN(c2nc(OCC34CCCN3CCC4)nc3c2CCN(c2cccc4cccc(Cl)c24)C3)C[C@@H]1CC#N)N1CCOCC1 [Compound 21]")
"10 to 100 nM"
>>> val("CC(/C=C/C(=O)N1CCN(c2nc(OC[C@@]34CCCN3C[C@H](F)C4)nc3c(F)c(-c4cccc5cccc(Cl)c45)ncc23)C[C@@H]1CC#N)N1C[C@@H]2C[C@H]1CO2 (some centres unmarked) [Compound 15]")
"10 to 100 nM"
>>> val("CO[C@@H]1CCN([C@@H](C)/C=C/C(=O)N2CCN(c3nc(OC[C@@]45CCCN4C[C@H](F)C5)nc4c(F)c(-c5cccc6ccc(F)c(Cl)c56)ncc34)C[C@@H]2CC#N)C1 [Compound 39]")
"100 to 500 nM"
>>> val("C[C@@H](/C=C/C(=O)N1CCN(c2nc(OC[C@@]34CCCN3C[C@H](F)C4)nc3c(F)c(-c4cccc5cccc(Cl)c45)ncc23)C[C@@H]1CC#N)N1C[C@H]2C[C@@H]1CO2 [Compound 26]")
"10 to 100 nM"
>>> val("C[C@H](/C=C/C(=O)N1CC[C@@H](N(C)c2nc(OC[C@@]34CCCN3C[C@H](F)C4)nc3c(F)c(-c4cccc5cccc(Cl)c45)ncc23)C1)N(C)C [Compound 1]")
"100 to 500 nM"
>>> val("C[C@H](/C=C/C(=O)N1CCN(c2nc(OC[C@@]34CCCN3C[C@H](F)C4)nc3c(F)c(-c4cccc5cccc(Cl)c45)ncc23)C[C@@H]1CC#N)N1CCOCC1 [Compound 23]")
"10 to 100 nM"
>>> val("C[C@H](/C=C/C(=O)N1CC[C@@H](N(C)c2nc(OC[C@@]34CCCN3C[C@H](F)C4)nc3c(F)c(-c4cccc5ccc(F)c(F)c45)ncc23)C1)N(C)C [Compound 7]")
"100 to 500 nM"
>>> val("C#Cc1c(F)ccc2cccc(-c3ncc4c(N(C)[C@@H]5CCN(C(=O)/C=C/C(C)N(C)C)C5)nc(OC[C@@]56CCCN5C[C@H](F)C6)nc4c3F)c12 (some centres unmarked) [Compound 32]")
"< 10 nM"
